Data provenance is paper PMC9964242.

# System: MDCK cells
# study-conditions: dog
metric-name: CC50 (half-maximal cytotoxic concentration) (µg/mL)

[
  {
    "molecule": "O=C(O)/C=C/c1ccccc1O",
    "recorded-result": 9172
  },
  {
    "molecule": "COc1cc(C=O)ccc1O",
    "recorded-result": 242
  },
  {
    "molecule": "O=C1c2cccc(O)c2C(=O)c2c(O)cc(CO)cc21",
    "recorded-result": 2280
  },
  {
    "molecule": "Cc1cc(O)c2c(c1)C(=O)c1cccc(O)c1C2=O",
    "recorded-result": 46.1
  },
  {
    "molecule": "C=C(C)[C@@H]1CC[C@]2(C)CC[C@]3(C)[C@H](CC[C@@H]4[C@@]5(C)CC[C@H](O)C(C)(C)[C@@H]5CC[C@]43C)[C@@H]12",
    "recorded-result": 560
  },
  {
    "molecule": "O=c1c(O[C@@H]2O[C@H](CO)[C@@H](O)[C@H](O)[C@H]2O)c(-c2ccc(O)c(O)c2)oc2cc(O)cc(O)c12",
    "recorded-result": 710
  },
  {
    "molecule": "O=c1cc(-c2ccccc2)oc2cc(O)ccc12 [7-Hydroxy flavone]",
    "recorded-result": 5830
  },
  {
    "molecule": "CC[C@H](CC[C@@H](C)[C@H]1CC[C@H]2[C@@H]3CC=C4C[C@@H](O)CC[C@]4(C)[C@H]3CC[C@]12C)C(C)C",
    "recorded-result": 9900
  }
]
